target: Protein farnesyltransferase (Homo sapiens, UniProt P49354+P49356); assay: FPT inhibitory activity was determined by the ability to inhibit the transfer of [3H]farnesyl from farnesyl pyrophosphate to H-ras-CLVS
Field: log10 IC50. Provide a value for each of the molecules that follow.
Scale: decimal log of IC50, IC50 in nM.

Worked cases, log10 IC50 given:
- substance.smiles: "CN(C)c1ccc(CNC(=NC#N)N2CCC(=C3c4ccc(Cl)cc4CCc4cc(Br)cnc43)CC2)cc1"
  obs.value: 2.00
- substance.smiles: "N#CN=C(NCc1cccnc1)N1CCC(=C2c3ccc(Cl)cc3CCc3cc(Br)cnc32)CC1"
  obs.value: 1.18
- substance.smiles: "CC(C)NC(=NC#N)N1CCC(=C2c3ccc(Cl)cc3CCc3cc(Br)cnc32)CC1"
  obs.value: 2.09
- substance.smiles: "N#CN/C(=N/Cc1ccc2c(c1)OCO2)N1CCC(=C2c3ccc(Cl)cc3CCc3cc(Br)cnc32)CC1"
  obs.value: 2.38

QUERY: Consider the molecule CCOC(=O)N1CCC(NC(=NC#N)N2CCC(=C3c4ccc(Cl)cc4CCc4cc(Br)cnc43)CC2)CC1 . State its measured log10 IC50.
RESULT: 1.62

---

Field: pIC50. Provide a value for each of the compounds that follow.
target: Protein farnesyltransferase (Homo sapiens, UniProt P49354+P49356); test: FPT inhibitory activity was determined by the ability to inhibit the transfer of [3H]farnesyl from farnesyl pyrophosphate to H-ras-CLVS
One number for each entry, as −log10 of the molar value.

- substance.smiles: "N#CN=C(NC1CC1)N1CCC(=C2c3ccc(Cl)cc3CCc3cc(Br)cnc32)CC1"
  target.entity: "Protein farnesyltransferase (Homo sapiens, UniProt P49354+P49356)"
  pIC50: 6.81

Working through the 3 compounds below one at a time, give pIC50 for each.
1. N#CN=C(Nc1ccccc1)N1CCC(=C2c3ccc(Cl)cc3CCc3cc(Br)cnc32)CC1
2. N#CN/C(=N/Cc1cc[n+]([O-])cc1)N1CCC(=C2c3ccc(Cl)cc3CCc3cc(Br)cnc32)CC1
3. CCCCNC(=NC#N)N1CCC(=C2c3ccc(Cl)cc3CCc3cc(Br)cnc32)CC1

RESULT:
6.94
8.22
6.98

Working through the 3 compounds below one at a time, give pIC50 for each.
1. N#CN=C(NCCc1cnc[nH]1)N1CCC(=C2c3ccc(Cl)cc3CCc3cc(Br)cnc32)CC1
2. N#CN=C(Nc1ccc2c(c1)OCO2)N1CCC(=C2c3ccc(Cl)cc3CCc3cc(Br)cnc32)CC1
3. N#CN=C(Nc1ccc2c(c1)COCO2)N1CCC(=C2c3ccc(Cl)cc3CCc3cc(Br)cnc32)CC1

RESULT:
1. 7.24
2. 7.42
3. 7.82

Working through the 4 compounds below one at a time, give pIC50 for each.
1. N#CN=C(NCC1CCNCC1)N1CCC(=C2c3ccc(Cl)cc3CCc3cc(Br)cnc32)CC1
2. N#C/N=C(\Nc1ccc([N+](=O)[O-])cc1)N1CCC(=C2c3ccc(Cl)cc3CCc3cc(Br)cnc32)CC1
3. N#CN/C(=N/CC1CCN(C(N)=O)CC1)N1CCC(=C2c3ccc(Cl)cc3CCc3cc(Br)cnc32)CC1
4. CS(=O)(=O)c1ccc(N/C(=N\C#N)N2CCC(=C3c4ccc(Cl)cc4CCc4cc(Br)cnc43)CC2)cc1

RESULT:
7.74
7.21
8.22
7.09

---

target: Protein farnesyltransferase (Homo sapiens, UniProt P49354+P49356); test: FPT inhibitory activity was determined by the ability to inhibit the transfer of [3H]farnesyl from farnesyl pyrophosphate to H-ras-CLVS
Field: log10 IC50. Provide a value for each of the compounds that follow.
Scale: decimal log of IC50, IC50 in nM.

Worked cases, log10 IC50 given:
- substance.smiles: "N#CN=C(Nc1ccc(F)cc1)N1CCC(=C2c3ccc(Cl)cc3CCc3cc(Br)cnc32)CC1"
  log10 IC50: 1.58
- substance.smiles: "O=C(CN1CCC(=C2c3ccc(Cl)cc3CCc3cccnc32)CC1)c1ccccc1"
  log10 IC50: 4.20

Working through the 2 compounds below one at a time, give log10 IC50 for each.
1. N#CN/C(=N/c1ccccc1)N1CCC(=C2c3ccc(Cl)cc3CCc3cccnc32)CC1
2. N#CN/C(=N/Cc1ccc[n+]([O-])c1)N1CCC([C@H]2c3ncc(Br)cc3CCc3cc(Cl)cc(Br)c32)CC1

RESULT:
1.93
0.23

QUERY: Lab note: Protein farnesyltransferase (Homo sapiens, UniProt P49354+P49356) assay, enter log10 IC50 for N#CN/C(=N/CCO)N1CCC(=C2c3ccc(Cl)cc3CCc3cc(Br)cnc32)CC1 here
RESULT: 2.23

---

biological target: Protein farnesyltransferase (Homo sapiens, UniProt P49354+P49356); test: FPT inhibitory activity was determined by the ability to inhibit the transfer of [3H]farnesyl from farnesyl pyrophosphate to H-ras-CLVS
Field: IC50. Provide a value for each of the molecules that follow.
Numbers only, in nM.

Worked cases, IC50 given:
- substance.smiles: "N#CN=C(NCc1ccccc1)N1CCC(=C2c3ccc(Cl)cc3CCc3cc(Br)cnc32)CC1"
  IC50, nM: 230
- substance.smiles: "N#CN=C(Nc1ccc(C#N)cc1)N1CCC(=C2c3ccc(Cl)cc3CCc3cc(Br)cnc32)CC1"
  IC50, nM: 32
- substance.smiles: "N#CN/C(=N/CCc1ccncc1)N1CCC(=C2c3ccc(Cl)cc3CCc3cc(Br)cnc32)CC1"
  IC50, nM: 30
- substance.smiles: "N#C/N=C(\\Nc1ccc(OC(F)(F)F)cc1)N1CCC(=C2c3ccc(Cl)cc3CCc3cc(Br)cnc32)CC1"
  IC50, nM: 320
- substance.smiles: "CN(C)CCCC/N=C(/NC#N)N1CCC(=C2c3ccc(Cl)cc3CCc3cc(Br)cnc32)CC1"
  IC50, nM: 74

Working through the 4 molecules below one at a time, give IC50 for each.
1. N#CN=C(NCc1ccc[n+]([O-])c1)N1CCC(=C2c3ccc(Cl)cc3CCc3cc(Br)cnc32)CC1
2. COc1ccc(C/N=C(/NC#N)N2CCC(=C3c4ccc(Cl)cc4CCc4cc(Br)cnc43)CC2)cc1
3. N#CN/C(=N/CCOCCO)N1CCC(=C2c3ccc(Cl)cc3CCc3cc(Br)cnc32)CC1
4. N#CN/C(=N/C1CCCCC1)N1CCC(=C2c3ccc(Cl)cc3CCc3cc(Br)cnc32)CC1

RESULT:
1. 12
2. 310
3. 84
4. 20

---

biological target: Protein farnesyltransferase (Homo sapiens, UniProt P49354+P49356); assay: FPT inhibitory activity was determined by the ability to inhibit the transfer of [3H]farnesyl from farnesyl pyrophosphate to H-ras-CLVS
measure.name: IC50 (µM)
Give bare numbers, in µM.

Worked cases, IC50 given:
- substance.smiles: "N#CN/C(=N/Cc1ccccn1)N1CCC(=C2c3ccc(Cl)cc3CCc3cc(Br)cnc32)CC1"
  unit.info: "µM"
  IC50: 0.029
- substance.smiles: "CC(C)c1ccc(N/C(=N\\C#N)N2CCC(=C3c4ccc(Cl)cc4CCc4cc(Br)cnc43)CC2)cc1"
  unit.info: "µM"
  IC50: 0.15
- substance.smiles: "N#CN/C(=N/CCCn1ccnc1)N1CCC(=C2c3ccc(Cl)cc3CCc3cc(Br)cnc32)CC1"
  unit.info: "µM"
  IC50: 0.035

Working through the 2 compounds below one at a time, give IC50 for each.
1. N#CN=C(N)N1CCC(=C2c3ccc(Cl)cc3CCc3cc(Br)cnc32)CC1
2. N#CN=C(NCC1CCCCC1)N1CCC(=C2c3ccc(Cl)cc3CCc3cc(Br)cnc32)CC1

RESULT:
[2.6, 0.199]

QUERY: Consider the compound O=C(Cc1ccc[n+]([O-])c1)N1CCC([C@H]2c3ncc(Br)cc3CCc3cc(Cl)cc(Br)c32)CC1 . State its measured IC50.
RESULT: 0.0082
